Could you please report measured Ratio: anti-MUC16 Binding OVCAR-3/SK-OV-3 for the items listed next?
assayed.system: T1, human MUC16 (mucin 16), endogenously expressed on cells (human)
T1 construct: Endogenous MUC16 on OVCAR-3 / OVCAR3-Luc / PEO-1 / HPAC cells; also called hMUC16
assay.method.text: MSD electrochemiluminescence cell binding; RLU ratio OVCAR-3/SK-OV-3; Ab 1.9 nM
Answers are plain numbers, in ratio.

binder	val
H1H8755P (antibody, human IgG1, V domains shown, Human IgG1 (H1H)) VH: EVQLVESGGGLVQPGRSLRLSCAASGFTFNDYAMHWVRQSPGKGLEWVSGIDWNGGSIDYADSVKGRFTISRDTAKNSLYLQMNSLKVEDTALYYCAKDIGHWNYIGGMDVWGQGTTVTVSS VL: DIQMTQSPSSLSASVGDRVTITCRASQSINIYLNWYQQKPGKAPKFLIYAASSLQTGVPSRFSGSGSGTDFTLTISSLEPEDFATYYCQHSYSTPPITFGQGTRLEIK	13
H1H8794P (antibody, V domains shown, Human IgG1 (H1H)) VH: QVQLVESGGGLVKPGGSLRLSCAASGFTFRDYSMSWIRQAPGKGLEWVSYVTFFNSAIYYADSVKGRFTISRDNAKNSLYLQMNSLRAEDTAVYYCAREREPIVGGFDYWGQGTLVTVSS VL: DIQMTQSPSSLSASVGDRVTITCRASQSINSYLNWYQQKPGKAPKLLIYAASSLQGGVPSRFSGGGSGTDFTLTITSLQPEDFATFYCQQSYSSPPITFGQGTRLEIK	8
H1H8783P (antibody, human IgG1, V domains shown, Human IgG1 (H1H)) VH: QVQLVESGGGVVQPGRSLRLSCAASGFTFSDHAMHWVRQAPGKGLEWVAVISYHGTDKQYGDSVKGRFTISRDNSKNALYLQMNSLRPEDTAMYYCAKDGYDFWNAYSLFDYWGQGTLVTVSS VL: DIQMTQSPSSLSASVGDRVTITCRASQSISNYLNWYQQKPGKAPKLLIYTASSLLSGVPSRFSGSGSGTDFTLTISSLQPEDFATYYCQQSYSTPPITFGQGTRLEIK	11

// switching to the query binder
Requested field: Ratio: anti-MUC16 Binding OVCAR-3/SK-OV-3. Item: H1M9528N (antibody, mouse IgG1, V domains shown, Mouse IgG1 constant region (H1M)) VH: QMQLQESGPGLVKPSETLSLTCTVSGGSISSYYWNWIRQPPGKGLEWIGYIYYSGNNFNPSLKSRVTISVDTSKNQFSLKLSSVTAADTAVYYCARAFHWNYEFDYWGQGTLVTVSS VL: EIVLTQSPGTLSLSPGERATLSCRASQSVSNNYLAWYQQKPGQAPRLLLYGASSRTTDIPDRFSGSGSGTDFTLTISRLEPEDFAVYYCQQYDNSPLTFGGGTKVEIR
153
